Cited source for all entries: patent US20250206837A1

EXPERIMENTAL_SYSTEM: T1, full-length human CD36-Flag overexpressed on stable F293 cells (human, UniProt P16671 2-472)
T1 construct: Gene segment from Sino Biological; also called F293/hCD36; hCD36; not shown: Flag tag
T1 sequence (P16671 2-472): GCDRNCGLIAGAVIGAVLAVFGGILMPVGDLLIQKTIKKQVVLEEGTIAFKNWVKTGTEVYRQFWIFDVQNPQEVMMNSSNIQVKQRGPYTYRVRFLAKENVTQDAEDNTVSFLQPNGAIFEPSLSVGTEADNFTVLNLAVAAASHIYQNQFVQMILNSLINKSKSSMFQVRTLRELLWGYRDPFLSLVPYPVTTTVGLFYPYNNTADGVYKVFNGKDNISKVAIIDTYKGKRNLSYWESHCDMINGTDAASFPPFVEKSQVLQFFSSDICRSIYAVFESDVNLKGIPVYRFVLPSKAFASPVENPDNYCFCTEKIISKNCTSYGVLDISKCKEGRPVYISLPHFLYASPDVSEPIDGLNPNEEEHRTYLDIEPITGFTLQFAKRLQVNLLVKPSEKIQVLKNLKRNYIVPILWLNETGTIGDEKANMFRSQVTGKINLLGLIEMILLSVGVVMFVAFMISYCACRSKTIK
PROTOCOL: flow cytometry, F293 cells overexpressing human CD36
The following binders are listed with their measured EC50 values.
Give the quantity in µg/mL, number only.

QUERY: So what does the record say about EC50 for 117_DA57D (antibody, V domains shown, full-length IgG, human kappa) VH: EVQLVESGGGLVQPGGSLRLSCAASGFTIDAFGIHWVRQAPGKGLEWVAWIAPYGGDTYYADSVKGRFTISADTSKNTAYLQMNSLRAEDTAVYYCARSFFGYFDYWGQGTLVTVSS VL: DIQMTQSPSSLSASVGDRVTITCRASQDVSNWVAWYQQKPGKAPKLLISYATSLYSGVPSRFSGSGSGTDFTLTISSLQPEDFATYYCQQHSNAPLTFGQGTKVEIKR ?
RESULT: 0.089

QUERY: Give its EC50 value. Item: 117_30DE (antibody, V domains shown, full-length IgG, human kappa) VH: EVQLVESGGGLVQPGGSLRLSCAASGFTIDSFGIHWVRQAPGKGLEWVAWIAPYGGETYYADSVKGRFTISADTSKNTAYLQMNSLRAEDTAVYYCARSFFGYFDYWGQGTLVTVSS VL: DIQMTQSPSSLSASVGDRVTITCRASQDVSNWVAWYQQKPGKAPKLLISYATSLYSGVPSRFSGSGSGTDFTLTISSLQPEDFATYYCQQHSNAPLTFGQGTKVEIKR
RESULT: 0.107

QUERY: Fill blank: measured EC50 of the binder 117_30DA (antibody, V domains shown, full-length IgG, human kappa) VH: EVQLVESGGGLVQPGGSLRLSCAASGFTIDAFGIHWVRQAPGKGLEWVAWIAPYGGYTYYADSVKGRFTISADTSKNTAYLQMNSLRAEDTAVYYCARSFFGYFDYWGQGTLVTVSS VL: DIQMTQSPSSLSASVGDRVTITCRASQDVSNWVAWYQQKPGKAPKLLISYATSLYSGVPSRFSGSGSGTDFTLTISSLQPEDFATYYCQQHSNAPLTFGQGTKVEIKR is ____.
RESULT: 0.157
